measured_target: human MAO-B (Homo sapiens)
Construct: expressed in transfected cells; host or cells: EBNA cells (transient transfection); cell membranes used
Sequence (P27338 1-520): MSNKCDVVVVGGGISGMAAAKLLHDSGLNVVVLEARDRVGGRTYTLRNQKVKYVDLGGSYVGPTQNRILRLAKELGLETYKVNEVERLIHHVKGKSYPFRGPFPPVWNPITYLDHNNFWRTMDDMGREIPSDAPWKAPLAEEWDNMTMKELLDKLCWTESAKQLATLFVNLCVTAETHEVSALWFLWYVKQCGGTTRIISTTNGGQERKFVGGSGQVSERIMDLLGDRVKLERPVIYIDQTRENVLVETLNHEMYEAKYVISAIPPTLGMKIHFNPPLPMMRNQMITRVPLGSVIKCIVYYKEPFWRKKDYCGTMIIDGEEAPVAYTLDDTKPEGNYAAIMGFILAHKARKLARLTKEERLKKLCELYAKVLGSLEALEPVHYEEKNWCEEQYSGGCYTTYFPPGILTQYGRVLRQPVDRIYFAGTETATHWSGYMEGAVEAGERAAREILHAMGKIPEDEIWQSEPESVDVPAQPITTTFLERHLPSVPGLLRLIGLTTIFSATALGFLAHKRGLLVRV
protocol_description: MAO-B enzymatic activity, spectrophotometric Amplex Red/peroxidase assay on membranes of transfected EBNA cells
Format: biochemical
conditions_used: membranes preincubated with compound 30 min at 37° C., pH 7.4; substrate tyramine; nine inhibitor concentrations in duplicate
pIC50: −log10 of the molar value.
quantity: pIC50

Completed entries (count: 6):
compound: NC(=O)CC(=O)Nc1ccc(OCc2ccc(C(F)(F)F)cc2)cc1F
quantity: pIC50
test_value: 8.05

compound: O=CNCC(=O)Nc1ccc(OCc2cccc(F)c2)cc1F
quantity: pIC50
test_value: 7.80

compound: NC(=O)CC(=O)Nc1ccc(C=Cc2ccc(F)cc2)cc1
quantity: pIC50
test_value: 7.74

compound: NC(=O)CC(=O)Nc1ccc(OCc2cc(F)c(F)cc2F)cc1
quantity: pIC50
test_value: 8.10

compound: COC(=O)CC(=O)Nc1ccc(OCc2ccc(F)cc2)cc1F
quantity: pIC50
test_value: 8.30

compound: COC(=O)CC(=O)Nc1ccc(OCc2cccc(F)c2)c(C)c1
quantity: pIC50
test_value: 7.85

[1] COC(=O)CC(=O)Nc1ccc(OCc2cccc(F)c2)cc1
[2] NC(=O)CC(=O)Nc1ccc(OCc2ccc(Cl)cc2)cc1
Please tell me which of the two, 1 or 2 , has the higher reported pIC50 value. Output the label that corresponds to your choice.
1
(1: 7.96, 2: 7.74)

* * *

measured_target: human MAO-B (Homo sapiens)
Sequence (P27338 1-520): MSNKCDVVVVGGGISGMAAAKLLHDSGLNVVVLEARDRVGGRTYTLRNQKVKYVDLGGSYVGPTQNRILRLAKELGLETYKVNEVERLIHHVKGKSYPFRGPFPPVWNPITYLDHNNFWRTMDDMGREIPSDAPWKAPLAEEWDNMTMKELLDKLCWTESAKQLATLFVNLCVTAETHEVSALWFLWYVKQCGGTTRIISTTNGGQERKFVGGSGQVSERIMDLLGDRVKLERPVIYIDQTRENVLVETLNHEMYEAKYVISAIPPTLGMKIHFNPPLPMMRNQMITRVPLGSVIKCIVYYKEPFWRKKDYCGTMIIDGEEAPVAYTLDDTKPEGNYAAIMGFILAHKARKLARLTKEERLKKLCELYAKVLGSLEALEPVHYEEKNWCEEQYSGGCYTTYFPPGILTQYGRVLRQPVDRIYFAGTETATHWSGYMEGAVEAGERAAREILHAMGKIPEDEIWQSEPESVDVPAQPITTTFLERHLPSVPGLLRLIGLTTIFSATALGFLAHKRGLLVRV
Where a name gives a salt, the structure may show the parent alone.
quantity: IC50 (µM)

molecule: CC(=O)NCC(=O)Nc1ccc(OCc2cccc(F)c2)cc1F
quantity: IC50
measure_unit: µM
test_value: 0.013
--
molecule: NC(=O)CC(=O)Nc1ccc(OCc2ccc(F)cc2F)cc1
quantity: IC50
measure_unit: µM
test_value: 0.008

[A] CC(=O)NCC(=O)Nc1ccc(OCc2ccc(F)cc2)cc1F
[B] NCC(=O)Nc1ccc(OCc2ccc(F)cc2)cc1F [Example 66, hydrochloride]
Could you tell me which of these two has the smaller IC50 figure? First: A Second: B Output the label that corresponds to your choice.
A
(A: 0.011 µM, B: 0.016 µM)

* * *

Target protein (sequence): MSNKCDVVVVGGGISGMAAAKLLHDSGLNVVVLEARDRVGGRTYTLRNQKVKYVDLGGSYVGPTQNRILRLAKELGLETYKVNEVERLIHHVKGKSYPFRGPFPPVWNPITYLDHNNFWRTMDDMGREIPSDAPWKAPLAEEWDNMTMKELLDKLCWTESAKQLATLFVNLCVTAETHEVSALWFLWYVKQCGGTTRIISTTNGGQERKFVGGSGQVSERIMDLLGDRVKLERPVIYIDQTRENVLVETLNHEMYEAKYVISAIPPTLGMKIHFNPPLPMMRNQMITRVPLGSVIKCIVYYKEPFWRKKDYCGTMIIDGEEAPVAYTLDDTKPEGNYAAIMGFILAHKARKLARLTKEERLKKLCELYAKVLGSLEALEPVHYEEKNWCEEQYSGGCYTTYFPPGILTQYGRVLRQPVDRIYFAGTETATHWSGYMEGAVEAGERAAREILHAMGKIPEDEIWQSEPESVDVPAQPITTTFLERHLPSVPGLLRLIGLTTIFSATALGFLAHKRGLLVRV
pIC50: −log10 of the molar value.
quantity: pIC50

smiles_structure: NC(=O)CC(=O)Nc1ccc(OCc2cccc(F)c2)cc1
test_value: 7.96

smiles_structure: NC(=O)CC(=O)Nc1ccc(OCc2ccc(F)cc2)cc1F
test_value: 7.82

smiles_structure: COC(=O)CC(=O)Nc1ccc(OCc2cccc(F)c2)c(F)c1
test_value: 8.02
